B1: NP_009172.2 (parent)
chain: LPALFTDLYSQEITAEEAREALP

Variants of: B1
Assay: protein stability index of a GFP-peptide fusion (GPS, HEK-293T) (PSI 1-6); higher = more stable;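 further: lentivirally expressed fusion library, cells FACS-sorted into six equal-sized GFP/DsRed ratio bins, PSI computed from sequencing read fractions per bin weighted by bin number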
Conditions: c terminus: native
ATTRIBUTE_MEASURED: protein stability index

>>> observed_result("LPALFTDLYSQEITAEEAPEALP [R19P]")
2.93
>>> observed_result("LPALFTDLDSQEITAEEAREALP [Y9D]")
5.38
>>> observed_result("LPAFFTDLYSQEITAEEAREALP [L4F]")
2.99
>>> observed_result("LPALFTDLYSQEITAENAREALP [E17N]")
2.5
>>> observed_result("LPALFTDLYSQEITAEEAREAKP [L22K]")
4.93
>>> observed_result("SPALFTDLYSQEITAEEAREALP [L1S]")
2.32
>>> observed_result("LPALFTDLYSQEITAEEAREANP [L22N]")
4.7

Where do the numbers come from? From the supplement of paper PMC10567573.
